# systemName: human androgen receptor (Homo sapiens, UniProt P10275)
# Construct: expressed in transfected cells; host or cells: HeLa cells
# Sequence (P10275 whole entry): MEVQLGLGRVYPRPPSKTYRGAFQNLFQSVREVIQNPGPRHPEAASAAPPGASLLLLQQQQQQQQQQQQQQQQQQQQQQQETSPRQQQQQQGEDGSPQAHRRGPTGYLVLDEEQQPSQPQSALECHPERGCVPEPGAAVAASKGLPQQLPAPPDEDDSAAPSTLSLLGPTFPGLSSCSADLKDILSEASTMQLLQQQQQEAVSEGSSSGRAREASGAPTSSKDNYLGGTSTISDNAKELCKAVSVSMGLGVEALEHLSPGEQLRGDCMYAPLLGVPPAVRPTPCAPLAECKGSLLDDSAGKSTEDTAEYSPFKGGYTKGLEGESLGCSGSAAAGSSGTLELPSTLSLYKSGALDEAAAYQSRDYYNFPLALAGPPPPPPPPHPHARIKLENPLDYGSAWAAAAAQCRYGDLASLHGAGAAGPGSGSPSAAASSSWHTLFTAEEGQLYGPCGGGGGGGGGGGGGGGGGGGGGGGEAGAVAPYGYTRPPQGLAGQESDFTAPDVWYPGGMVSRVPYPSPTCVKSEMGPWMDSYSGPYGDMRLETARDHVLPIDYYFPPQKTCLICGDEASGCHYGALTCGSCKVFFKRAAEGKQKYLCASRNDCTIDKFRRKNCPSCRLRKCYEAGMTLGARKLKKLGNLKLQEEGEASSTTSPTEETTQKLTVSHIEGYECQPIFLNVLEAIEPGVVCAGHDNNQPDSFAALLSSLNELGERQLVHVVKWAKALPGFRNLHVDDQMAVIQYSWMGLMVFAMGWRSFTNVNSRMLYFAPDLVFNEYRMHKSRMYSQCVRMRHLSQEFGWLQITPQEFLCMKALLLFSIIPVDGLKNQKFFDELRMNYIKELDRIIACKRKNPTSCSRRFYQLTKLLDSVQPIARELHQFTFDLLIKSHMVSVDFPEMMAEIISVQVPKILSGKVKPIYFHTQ
# protocol: Androgen receptor reporter gene assay, antagonist action against DHT (MMTV-Luc, pSG5/hAR and Renilla Luc vectors transfected into HeLa cells, dual-luciferase)
# Type: cell-based

{"molecule": "CCCCN(C)C(=O)CCCCCCCC1CC2CC(=O)CCC2(C)C2CCC3(C)C(O)CCC3C12 (stereo not shown)", "IC50 / nM": 342}
{"molecule": "CC(C)N(C)C(=O)CCCCCCCC1CC2CC(=O)CCC2(C)C2CCC3(C)C(O)CCC3C12 (stereo not shown)", "IC50 / nM": 421}
{"molecule": "CC(C)NC(=O)CCCCCCCC1CC2CC(=O)CCC2(C)C2CCC3(C)C(O)CCC3C12 (stereo not shown)", "IC50 / nM": 1980}
{"molecule": "CCN(CC)C(=O)CCCCCCCC1CC2CC(=O)CCC2(C)C2CCC3(C)C(O)CCC3C12 (stereo not shown)", "IC50 / nM": 295}
{"molecule": "CN(C)C(=O)CCCCCCCCCCC1CC2CC(=O)CCC2(C)C2CCC3(C)C(O)CCC3C12 (stereo not shown)", "IC50 / nM": 277}
{"molecule": "CNC(=O)CCCOc1cccc(CCC[C@@H]2C[C@H]3CC(=O)CC[C@]3(C)[C@H]3CC[C@]4(C)[C@@H](O)CC[C@H]4[C@H]23)c1 (stereo in doubt)", "IC50 / nM": 291}
{"molecule": "CC12CCC3C(C(CCCCCCCC(=O)NCCc4ccccc4)CC4CC(=O)CCC43C)C1CCC2O (stereo not shown)", "IC50 / nM": 2040}
{"molecule": "CNC(=O)CCCCCCCC1CC2CC(=O)CCC2(C)C2CCC3(C)C(O)CCC3C12 (stereo not shown)", "IC50 / nM": 477}
{"molecule": "CN(C)C(=O)CCCCCCC[C@@H]1C[C@H]2CC(=O)CC[C@]2(C)[C@H]2CC[C@]3(C)[C@@H](O)CC[C@H]3[C@H]12", "IC50 / nM": 451}
{"molecule": "CC12CCC3C(C(CCCCCCCC(=O)N4CCCC4)CC4CC(=O)CCC43C)C1CCC2O (stereo not shown)", "IC50 / nM": 304}

----------
# systemName: human androgen receptor (Homo sapiens, UniProt P10275)
# Construct: expressed in transfected cells; host or cells: HeLa cells
# protocol: Androgen receptor reporter gene assay, antagonist action against DHT (MMTV-Luc, pSG5/hAR and Renilla Luc vectors transfected into HeLa cells, dual-luciferase)
# Type: cell-based
# conditions: concentration giving 50% decrease in the transcriptional activity of DHT 0.1 nmol/L; tested at 1, 10, 100, 1000 and 10000 nmol/L; read-out: IC50 value
Measured IC50, listed per entry.

{"compound": "CC12CCC3C(C(CCCCCCCCCC(=O)N4CCOCC4)CC4CC(=O)CCC43C)C1CCC2O (stereo not shown) [Example 51]", "systemName": "human androgen receptor (Homo sapiens, UniProt P10275)", "unitsLabel": "nM", "IC50": 474}
{"compound": "CN(C)C(=O)CCCOc1cccc(CCCC2CC3CC(=O)CCC3(C)C3CCC4(C)C(O)CCC4C23)c1 (stereo not shown) [Example 168]", "systemName": "human androgen receptor (Homo sapiens, UniProt P10275)", "unitsLabel": "nM", "IC50": 540}
{"compound": "CCCN(C)C(=O)CCCCCCCC1CC2CC(=O)CCC2(C)C2CCC3(C)C(O)CCC3C12 (stereo not shown) [Example 26]", "systemName": "human androgen receptor (Homo sapiens, UniProt P10275)", "unitsLabel": "nM", "IC50": 1130}
{"compound": "CC12CCC3C(C(CCCCCCCC(=O)NCc4ccco4)CC4CC(=O)CCC43C)C1CCC2O (stereo not shown) [Example 23]", "systemName": "human androgen receptor (Homo sapiens, UniProt P10275)", "unitsLabel": "nM", "IC50": 1300}
{"compound": "CC12CCC3C(C(CCCCCCCC(=O)NCc4ccccc4)CC4CC(=O)CCC43C)C1CCC2O (stereo not shown) [Example 73]", "systemName": "human androgen receptor (Homo sapiens, UniProt P10275)", "unitsLabel": "nM", "IC50": 1100}
{"compound": "CCN(CC)C(=O)CCCCCCCCCC1CC2(C)C(O)CCC2C2CCC3CC(=O)CCC3(C)C12 (stereo not shown) [Example 96]", "systemName": "human androgen receptor (Homo sapiens, UniProt P10275)", "unitsLabel": "nM", "IC50": 1600}
{"compound": "CCN(C)C(=O)CCCCCCCC1CC2CC(=O)CCC2(C)C2CCC3(C)C(O)CCC3C12 (stereo not shown) [Example 25]", "systemName": "human androgen receptor (Homo sapiens, UniProt P10275)", "unitsLabel": "nM", "IC50": 415}
{"compound": "CCCCN(C)C(=O)CCCCCCCCCC[C@@H]1CC2=CC(=O)CC[C@]2(C)[C@H]2CC[C@]3(C)[C@@H](O)CC[C@H]3[C@H]12 [EM-101, reference compound]", "systemName": "human androgen receptor (Homo sapiens, UniProt P10275)", "unitsLabel": "nM", "IC50": 2620}
{"compound": "CCCNC(=O)CCCCCCCC1CC2CC(=O)CCC2(C)C2CCC3(C)C(O)CCC3C12 (stereo not shown) [Example 65]", "systemName": "human androgen receptor (Homo sapiens, UniProt P10275)", "unitsLabel": "nM", "IC50": 1830}
{"compound": "CCN(CC)C(=O)CCCCCCCCCC1CC2CC(=O)CCC2(C)C2CCC3(C)C(O)CCC3C12 (stereo not shown) [Example 43]", "systemName": "human androgen receptor (Homo sapiens, UniProt P10275)", "unitsLabel": "nM", "IC50": 1300}
{"compound": "CCNC(=O)CCCCCCC[C@@H]1C[C@H]2CC(=O)CC[C@]2(C)[C@H]2CC[C@]3(C)[C@@H](O)CC[C@H]3[C@H]12 [Example 10]", "systemName": "human androgen receptor (Homo sapiens, UniProt P10275)", "unitsLabel": "nM", "IC50": 937}
{"compound": "CC12CCC3C(C(CCCc4cccc(OCCCCC(=O)N5CCCC5)c4)CC4CC(=O)CCC43C)C1CCC2O (stereo not shown) [Example 167]", "systemName": "human androgen receptor (Homo sapiens, UniProt P10275)", "unitsLabel": "nM", "IC50": 475}
{"compound": "CCCCN(C)C(=O)CCCCCCCCCC1CC2CC(=O)CCC2(C)C2CCC3(C)C(O)CCC3C12 (stereo not shown) [Example 46]", "systemName": "human androgen receptor (Homo sapiens, UniProt P10275)", "unitsLabel": "nM", "IC50": 1750}
{"compound": "C[C@]12CCC(=O)C[C@@H]1C[C@@H](CCCCCCCC(=O)NCCO)[C@@H]1[C@@H]2CC[C@]2(C)[C@@H](O)CC[C@@H]12 (stereo in doubt) [Example 64]", "systemName": "human androgen receptor (Homo sapiens, UniProt P10275)", "unitsLabel": "nM", "IC50": 809}
{"compound": "CN(C)C(=O)CCCCCCCCCC1CC2CC(=O)CCC2(C)C2CCC3(C)C(O)CCC3C12 (stereo not shown) [Example 42]", "systemName": "human androgen receptor (Homo sapiens, UniProt P10275)", "unitsLabel": "nM", "IC50": 342}
{"compound": "CCCN(C)C(=O)CCCCCCCCCC1CC2CC(=O)CCC2(C)C2CCC3(C)C(O)CCC3C12 (stereo not shown) [Example 50]", "systemName": "human androgen receptor (Homo sapiens, UniProt P10275)", "unitsLabel": "nM", "IC50": 737}
